# Tested on: Enterococcus faecalis
# Assay Notes: Antibacterial activity against Enterococcus faecalis assessed as bacterial growth inhibition incubated for 24 hrs by CLSI based two serial dilution assay
# Assay type: functional
MIC reference

{"Smiles": "CCCCN1C(=O)/C(=N\\Nc2nc(C)c(C(C)=O)s2)c2ccccc21", "MIC [µM]": 512}
{"Smiles": "CCCCCN1C(=O)/C(=N\\Nc2nccs2)c2ccccc21", "MIC [µM]": 4}
{"Smiles": "CCCCN1C(=O)/C(=N\\Nc2nccs2)c2ccccc21", "MIC [µM]": 0.5}
{"Smiles": "CCCCCCCCCCN1C(=O)/C(=N\\Nc2nccs2)c2ccccc21", "MIC [µM]": 4}
{"Smiles": "O=C1/C(=N\\Nc2nccs2)c2ccccc2N1Cc1ccccc1Cl", "MIC [µM]": 32}
{"Smiles": "CCCCN1C(=O)/C(=N\\Nc2nccs2)c2cccc(F)c21", "MIC [µM]": 2}
{"Smiles": "O=C1/C(=N\\Nc2nccs2)c2ccccc2N1Cc1ccc(Cl)cc1", "MIC [µM]": 64}
{"Smiles": "CCCCN1C(=O)/C(=N\\Nc2nccs2)c2cc(Cl)ccc21", "MIC [µM]": 32}
{"Smiles": "CCCCN1C(=O)/C(=N\\Nc2nccs2)c2ccc(Cl)cc21", "MIC [µM]": 2}
{"Smiles": "C=CC1=C(C(=O)O)N2C(=O)[C@@H](NC(=O)/C(=N\\O)c3csc(N)n3)[C@H]2SC1", "MIC [µM]": 2}
{"Smiles": "CCCCN1C(=O)/C(=N\\Nc2nccs2)c2cc(F)ccc21", "MIC [µM]": 4}
